target: Human full-length Hsp90 (Homo sapiens); construct: E. coli expressed human full-length HSP90 protein, purified >95%; made in house; host or cells: E. coli; assay: Fluorescence polarization assay (competitive binding to HSP90, probe RBT0045864-FAM); details: fluorescence polarization assay, activity range; read-out: Hsp90 FP IC50
Sequence (P08238 whole entry): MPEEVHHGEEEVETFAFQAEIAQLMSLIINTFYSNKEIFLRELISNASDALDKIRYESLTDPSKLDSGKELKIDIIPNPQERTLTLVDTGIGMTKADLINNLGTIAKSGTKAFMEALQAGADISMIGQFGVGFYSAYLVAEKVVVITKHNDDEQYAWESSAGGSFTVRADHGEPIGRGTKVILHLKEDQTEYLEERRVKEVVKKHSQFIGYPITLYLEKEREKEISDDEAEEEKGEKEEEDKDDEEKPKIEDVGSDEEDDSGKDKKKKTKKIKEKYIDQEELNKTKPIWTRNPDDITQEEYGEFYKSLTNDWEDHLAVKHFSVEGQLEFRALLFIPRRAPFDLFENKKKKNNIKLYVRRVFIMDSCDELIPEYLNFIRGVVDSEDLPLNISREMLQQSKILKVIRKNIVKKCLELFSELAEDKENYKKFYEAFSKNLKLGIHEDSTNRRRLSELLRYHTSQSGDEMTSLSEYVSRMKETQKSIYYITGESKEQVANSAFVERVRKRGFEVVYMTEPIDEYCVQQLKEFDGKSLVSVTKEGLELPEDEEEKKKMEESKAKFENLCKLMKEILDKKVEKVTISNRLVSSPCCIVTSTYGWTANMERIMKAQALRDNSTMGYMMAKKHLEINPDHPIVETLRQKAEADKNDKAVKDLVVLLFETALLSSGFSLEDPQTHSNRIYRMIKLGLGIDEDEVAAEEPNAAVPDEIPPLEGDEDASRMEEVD
pIC50: −log10 of the molar value.
Item-by-item account of pIC50

Use the examples below as a reference point.
[[record]]
molecule = "C=CCc1ccc(-c2nc(N)nc3sc(C(=O)NCC)cc23)c(C)c1 [Example 176]"
reading = "> 5.00"

[[record]]
molecule = "CCCCNCc1ccc(C)c(-c2nc(N)nc3sc(C(=O)NCC)cc23)c1 [Example 213]"
reading = "> 5.00"

[[record]]
molecule = "Nc1nc(-c2ccccc2)c2cc(C(=O)NCCc3ccccc3)sc2n1 [Example 49]"
reading = "< 5.00"


# evaluate next
Problem: Request body: readout pIC50, system Human full-length Hsp90 (Homo sapiens), query CCOC(=O)c1cc2c(C=Cc3ccccc3)nc(N)nc2s1 [275 Step 1] . Return the value.
Result: > 5.00

###

target: Human full-length Hsp90 (Homo sapiens); construct: E. coli expressed human full-length HSP90 protein, purified >95%; made in house; host or cells: E. coli; assay: Fluorescence polarization assay (competitive binding to HSP90, probe RBT0045864-FAM); conditions: fluorescence polarization assay, activity range; read-out: Hsp90 FP IC50
pIC50: −log10 of the molar value.
parameter.measured: pIC50

[[record]]
compound = "CCOC(=O)c1cc2c(/C=C/c3cccc(OC)c3)nc(N)nc2s1 [Example 279]"
parameter_measured = "pIC50"
reading = "> 5.00"

[[record]]
compound = "Nc1nc(-c2ccc(Cl)cc2Cl)c2cc(C(=O)NCc3cccc(C(F)(F)F)c3)sc2n1 [Example 122]"
parameter_measured = "pIC50"
reading = "> 5.00"

[[record]]
compound = "CCNC(=O)c1cc2c(-c3cc(CNCCc4ccccc4)ccc3C)nc(N)nc2s1 [Example 215]"
parameter_measured = "pIC50"
reading = "> 5.00"

[[record]]
compound = "Cc1ccc(-c2nc(N)nc3sc(C(=O)NC(C)C)cc23)c(C)c1 [Example 81]"
parameter_measured = "pIC50"
reading = "> 5.00"

[[record]]
compound = "Nc1nc(-c2ccc(Cl)cc2Cl)c2cc(C(=O)Nc3cccc(Cl)c3)sc2n1 [Example 109]"
parameter_measured = "pIC50"
reading = "> 5.00"


Problem: Request body: readout pIC50, system Human full-length Hsp90 (Homo sapiens), query Cc1ccc(-c2nc(N)nc3sc(C(=O)NCCCO)cc23)c(C)c1 [Example 85] . Return the value.
Result: > 5.00

Problem: Request body: readout pIC50, system Human full-length Hsp90 (Homo sapiens), query CCOC(=O)c1cc2c(-c3ccc(C)cc3)nc(N)nc2s1 [Example 11] . Return the value.
Result: > 5.00

Problem: Request body: readout pIC50, system Human full-length Hsp90 (Homo sapiens), query CC(C)(NC(=O)c1cc2c(-c3ccc(Cl)cc3Cl)nc(N)nc2s1)c1ccccc1 [Example 140] . Return the value.
Result: > 5.00

Problem: Request body: readout pIC50, system Human full-length Hsp90 (Homo sapiens), query CCNC(=O)c1cc2c(-c3cc(CNCCc4cnc[nH]4)ccc3C)nc(N)nc2s1 [Example 204] . Return the value.
Result: > 5.00

Problem: Request body: readout pIC50, system Human full-length Hsp90 (Homo sapiens), query CCOC(=O)c1cc2c(C#N)nc(N)nc2s1 [Example 319] . Return the value.
Result: > 5.00

Problem: Request body: readout pIC50, system Human full-length Hsp90 (Homo sapiens), query Cc1ccc(-c2nc(N)nc3sc(C(=O)NCCO)cc23)c(C)c1 [Example 82] . Return the value.
Result: > 5.00

Problem: Request body: readout pIC50, system Human full-length Hsp90 (Homo sapiens), query Nc1nc(-c2ccccc2)c2cc(C(=O)NCCCc3ccccc3)sc2n1 [Example 50] . Return the value.
Result: < 5.00

###

Target: Human full-length Hsp90 (Homo sapiens)
Construct: E. coli expressed human full-length HSP90 protein, purified >95%; made in house; host or cells: E. coli
Assay: Fluorescence polarization assay (competitive binding to HSP90, probe RBT0045864-FAM)
Details: fluorescence polarization assay, activity range; read-out: Hsp90 FP IC50
Method: Fluorescence Polarization Assay Fluorescence polarization {also known as fluorescence anisotropy} measures the rotation of a fluorescing species in solution, where the larger molecule the more polarized the fluorescence emission. When the fluorophore is excited with polarized light, the emitted light is also polarized. The molecular size is proportional to the polarization of the fluorescence emission. […] Test compound is added to the assay plate, left to equilibrate and the anisotropy measured again. […]
pIC50: −log10 of the molar value.
parameter.measured: pIC50

[[record]]
molecule = "Nc1nc(-c2ccc(Cl)cc2Cl)c2cc(C(=O)NCc3cccnc3)sc2n1"
assayed_target = "Human full-length Hsp90 (Homo sapiens)"
reading = "> 5.00"

[[record]]
molecule = "CCOC(=O)c1cc2c(-c3ccc(C(F)(F)F)cc3C(F)(F)F)nc(N)nc2s1"
assayed_target = "Human full-length Hsp90 (Homo sapiens)"
reading = "> 5.00"

[[record]]
molecule = "CCOC(=O)c1cc2c(-c3ccc(OC)cc3)nc(N)nc2s1"
assayed_target = "Human full-length Hsp90 (Homo sapiens)"
reading = "< 5.00"

[[record]]
molecule = "CCN(CC)CCOc1cc(-c2nc(N)nc3sc(C(=O)NCCO)cc23)c(Cl)cc1Cl"
assayed_target = "Human full-length Hsp90 (Homo sapiens)"
reading = "> 5.00"

[[record]]
molecule = "C=Cc1ccc(-c2nc(N)nc3sc(C(=O)NCC)cc23)c(C)c1"
assayed_target = "Human full-length Hsp90 (Homo sapiens)"
reading = "> 5.00"


Problem: Query: pIC50; subject: Nc1nc(-c2ccc(Cl)cc2Cl)c2cc(C(=O)NCCCN3CCCC3)sc2n1
Result: > 5.00

Problem: Query: pIC50; subject: CCOC(=O)c1cc2c(-c3ccc(C)cn3)nc(N)nc2s1
Result: > 5.00

Problem: Query: pIC50; subject: Nc1nc(-c2ccc(Cl)cc2Cl)c2cc(C(=O)NCc3ccccn3)sc2n1
Result: > 5.00

Problem: Query: pIC50; subject: CCOC(=O)c1cc2c(-c3ccccc3CC)nc(N)nc2s1
Result: < 5.00

Problem: Query: pIC50; subject: Nc1nc(-c2ccc(Cl)cc2Cl)c2cc(C(=O)NCCO)sc2n1
Result: > 5.00

###

Target: Human full-length Hsp90 (Homo sapiens)
Construct: E. coli expressed human full-length HSP90 protein, purified >95%; made in house; host or cells: E. coli
Test: Fluorescence polarization assay (competitive binding to HSP90, probe RBT0045864-FAM)
Settings: fluorescence polarization assay, activity range; read-out: Hsp90 FP IC50
Protocol: Fluorescence Polarization Assay Fluorescence polarization {also known as fluorescence anisotropy} measures the rotation of a fluorescing species in solution, where the larger molecule the more polarized the fluorescence emission. When the fluorophore is excited with polarized light, the emitted light is also polarized. The molecular size is proportional to the polarization of the fluorescence emission. […] Test compound is added to the assay plate, left to equilibrate and the anisotropy measured again. […]
pIC50: −log10 of the molar value.
parameter.measured: pIC50

[[record]]
compound = "CCOC(=O)c1cc2c(C(=O)c3ccccc3Cl)nc(N)nc2s1"
assayed_target = "Human full-length Hsp90 (Homo sapiens)"
parameter_measured = "pIC50"
reading = "> 5.00"


Problem: Query: pIC50; subject: CCNC(=O)c1cc2c(-c3cc(CNCc4cccs4)ccc3C)nc(N)nc2s1
Result: > 5.00

Problem: Query: pIC50; subject: CCOC(=O)c1cc2c(C(=O)c3ccc(Cl)cc3)nc(N)nc2s1
Result: > 5.00

Problem: Query: pIC50; subject: COC(=O)c1cc2c(NCc3ccccc3)nc(N)nc2s1
Result: < 5.00

Problem: Query: pIC50; subject: Nc1nc(-c2ccccc2)c2cc(C(=O)Nc3ccccc3)sc2n1
Result: < 5.00

Problem: Query: pIC50; subject: CCN1CCCC1CNC(=O)c1cc2c(-c3ccc(Cl)cc3Cl)nc(N)nc2s1 (stereo not drawn)
Result: > 5.00

Problem: Query: pIC50; subject: Nc1nc(-c2ccccc2)c2cc(C(=O)NCCN3CCOCC3)sc2n1
Result: < 5.00

Problem: Query: pIC50; subject: CCNC(=O)c1cc2c(-c3cc(OCCn4ccnc4)c(Cl)cc3Cl)nc(N)nc2s1
Result: > 5.00

Problem: Query: pIC50; subject: CCOC(=O)c1cc2c(C(=O)c3ccc4c(c3)OCO4)nc(N)nc2s1
Result: > 5.00

###

molecular target: Human full-length Hsp90 (Homo sapiens); construct: E. coli expressed human full-length HSP90 protein, purified >95%; made in house; host or cells: E. coli; test: Fluorescence polarization assay (competitive binding to HSP90, probe RBT0045864-FAM); settings: fluorescence polarization assay, activity range; read-out: Hsp90 FP IC50
Item-by-item account of IC50

Use the examples below as a reference point.
[[record]]
structure_smiles_string = "CCOC(=O)c1cc2c(-c3ncccc3C)nc(N)nc2s1"
parameter_measured = "IC50"
reading = "< 10 µM"

[[record]]
structure_smiles_string = "CCOC(=O)c1cc2c(NC(C)(C)c3ccccc3)nc(N)nc2s1"
parameter_measured = "IC50"
reading = "> 10 µM"

[[record]]
structure_smiles_string = "Nc1nc(-c2ccc(Cl)cc2Cl)c2cc(C(=O)NCCCS(=O)(=O)O)sc2n1"
parameter_measured = "IC50"
reading = "< 10 µM"

[[record]]
structure_smiles_string = "CCOC(=O)c1cc2c(C(=O)c3ccccc3)nc(N)nc2s1"
parameter_measured = "IC50"
reading = "< 10 µM"

[[record]]
structure_smiles_string = "CCOC(=O)c1cc2c(/C=C/c3ccc(Cl)cc3)nc(N)nc2s1"
parameter_measured = "IC50"
reading = "< 10 µM"


Problem: Query: IC50; subject: Cc1ccc(-c2nc(N)nc3sc(C(=O)N4CCOCC4)cc23)c(C)c1
Result: > 10 µM

Problem: Query: IC50; subject: CCCNC(=O)c1ccc(C)c(-c2nc(N)nc3sc(C(=O)NCc4ccccc4)cc23)c1
Result: > 10 µM

Problem: Query: IC50; subject: CCOC(=O)c1cc2c(-c3ccc(CO)cc3)nc(N)nc2s1
Result: < 10 µM

Problem: Query: IC50; subject: CCOC(=O)c1cc2c(CCc3ccccc3)nc(N)nc2s1
Result: < 10 µM

Where these numbers come from: patent US8642594B2
